- target.entity: SARS-CoV-2 spike protein on pseudotyped lentivirus (Wuhan Reference Pseudovirus) (SARS-CoV-2, UniProt P0DTC2 14-1273)
- test.protocol: cell-based or functional assay
Each item that follows carries a reported infectivity % under 10 ug/mL VHH treatment.
Give the value in % but do not write % after it.

Example binders with recorded infectivity % under 10 ug/mL VHH treatment:
Q: Which infectivity % under 10 ug/mL VHH treatment value is on record for PP1132 MBP-4B0F-PAPA-R2c-F6-H6 (VHH, Form: Heptamer) VHH: QVQLVESGGGLVQPGGSLRLSCAASGRILAANIVHWYRQAPGKEREGVAGITTGGSNYYSDSVKGRFTISRDNAKNTVYLQMNSLKPEDTAVYYCNALGLGSASGSYESWGQGTQVTVSS ?
A: 2.65

Q: Which infectivity % under 10 ug/mL VHH treatment value is on record for PP1150 MBP-5HVZ-PAPA-R5b-G1-H6 (VHH, Form: Dimer) VHH: QVQLVESGGGLVQPGGSLRLSCAASGSIGQIVLVHWFRQAPGKQRELVAGITSPSSTYYADSVKGRFTISRDNAKNTVYLQMNSLKPEDTAVYYCNTELEGKTQGFTGKTVWYDYWGQGTQVTVSS ?
A: 2.31

Q: Which infectivity % under 10 ug/mL VHH treatment value is on record for PP1181 R2d-D3-PP7-H6 (VHH) VHH: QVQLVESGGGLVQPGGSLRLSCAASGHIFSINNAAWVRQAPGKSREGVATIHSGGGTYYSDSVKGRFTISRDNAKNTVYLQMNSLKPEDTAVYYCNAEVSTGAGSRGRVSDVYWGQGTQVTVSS ?
A: 1.57

Here's the next entry for you.
Q: Which infectivity % under 10 ug/mL VHH treatment value is on record for PP1145 MBP-5HVZ-PAPA-R2d-A6-H6 (VHH, Form: Dimer) VHH: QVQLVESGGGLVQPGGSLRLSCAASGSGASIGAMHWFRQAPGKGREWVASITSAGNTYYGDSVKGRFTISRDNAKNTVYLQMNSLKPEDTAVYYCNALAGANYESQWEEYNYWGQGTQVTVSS ?
A: 65.2
